test: logP by HPLC on reversed-phase column (EEC Directive 79/831 Annex V.A8); format: physicochemical; details: HPLC on reversed-phase column (C 18), 40° C., 0.1% aqueous formic acid and acetonitrile, linear gradient 10% to 90% acetonitrile
# cutoff 3 applies to logP; >= gives 1, < gives -1

Does the reported logP for Cn1nc(C(F)F)c(C(=S)N2CCCC2c2cccc(C(F)(F)F)c2)c1F (stereo not drawn) fall at or above the 3 mark?
1

Does the reported logP for Cn1nc(C(F)F)c(C(=O)N2CCCC2c2ccc(C(C)(C)C)cc2)c1Cl (stereo not drawn) fall at or above the 3 mark?
1

Does the reported logP for Cn1nc(C(F)F)c(C(=O)N2CCC[C@H]2COc2c(Cl)cc(Cl)cc2Cl)c1F fall at or above the 3 mark?
1

Does the reported logP for Cn1nc(C(F)F)c(C(=O)N2CCCC2c2ccco2)c1F (stereo not drawn) fall at or above the 3 mark?
-1

Does the reported logP for Cn1nc(C(F)F)c(C(=O)N2CCCC2CS(=O)(=O)c2ccccc2)c1Cl (racemic) fall at or above the 3 mark?
-1

Does the reported logP for Cn1nc(C(F)F)c(C(=O)N2CCCC2c2cc(C(F)(F)F)cc(C(F)(F)F)c2)c1F (stereo not drawn) fall at or above the 3 mark?
1

Does the reported logP for Cn1nc(C(F)F)c(C(=O)N2CCC[C@H]2COc2c(Cl)cc(Cl)cc2Cl)c1Cl fall at or above the 3 mark?
1

Does the reported logP for Cn1nc(C(F)F)c(C(=O)N2CCCC2c2ccc(C(F)(F)F)cc2)c1F (stereo not drawn) fall at or above the 3 mark?
1

Does the reported logP for Cn1nc(C(F)F)c(C(=O)N2CCCC2c2cc3ccccc3s2)c1Cl (stereo not drawn) fall at or above the 3 mark?
1

###

Assay: logP by HPLC on reversed-phase column (EEC Directive 79/831 Annex V.A8)
Format: physicochemical
Settings: HPLC on reversed-phase column (C 18), 40° C., 0.1% aqueous formic acid and acetonitrile, linear gradient 10% to 90% acetonitrile
Method: In table 1, the logP values were determined in accordance with EEC Directive 79/831 Annex V.A8 by HPLC (High Performance Liquid Chromatography) on a reversed-phase column (C 18), using the method described below: Temperature: 40° C.; Mobile phases: 0.1% aqueous formic acid and acetonitrile; linear gradient from 10% acetonitrile to 90% acetonitrile. […]
# cutoff 3 applies to logP; >= gives Condition met, < gives Condition not met

Does the reported logP for CC(c1cc(Cl)ccc1Cl)C1CCCN1C(=O)c1c(C(F)F)nn(C)c1Cl (mixture of isomers) [Example 74] fall at or above the 3 mark?
Condition met

Does the reported logP for Cn1nc(C(F)F)c(C(=O)N2CCCC2c2ccc(Cl)cc2)c1F (centres unmarked) [Example 8] fall at or above the 3 mark?
Condition not met

Does the reported logP for Cc1ccccc1CC1CCCN1C(=O)c1c(C(F)F)nn(C)c1F (centres unmarked) [Example 54] fall at or above the 3 mark?
Condition met

Does the reported logP for Cn1nc(C(F)F)c(C(=O)N2CCCC2c2ccc(Cl)cc2Cl)c1Cl (centres unmarked) [Example 23] fall at or above the 3 mark?
Condition met

Does the reported logP for Cn1nc(C(F)F)c(C(=O)N2CCCC2c2cccs2)c1F (centres unmarked) [Example 45] fall at or above the 3 mark?
Condition not met

Does the reported logP for Cn1nc(C(F)F)c(C(=O)N2CCCC2c2cccnc2)c1F (centres unmarked) [Example 44] fall at or above the 3 mark?
Condition not met

Does the reported logP for Cc1ccccc1C1CCCN1C(=O)c1c(C(F)F)nn(C)c1Cl (centres unmarked) [Example 1] fall at or above the 3 mark?
Condition not met

Does the reported logP for Cn1nc(C(F)F)c(C(=O)N2CCCC2Cc2cccc(Cl)c2Cl)c1F (racemic) [Example 69] fall at or above the 3 mark?
Condition met

Does the reported logP for Cn1nc(C(F)F)c(C(=O)N2CCCC2c2cc3ccccc3s2)c1F (centres unmarked) [Example 48] fall at or above the 3 mark?
Condition met

Does the reported logP for Cn1nc(C(F)F)c(C(=O)N2CCCC2CS(=O)(=O)c2ccccc2)c1F (racemic) [Example 87] fall at or above the 3 mark?
Condition not met

Does the reported logP for Cn1nc(C(F)F)c(C(=O)N2CCCC2c2ccc(-c3ccccc3)cc2)c1F (centres unmarked) [Example 29] fall at or above the 3 mark?
Condition met

Does the reported logP for Cn1nc(C(F)F)c(C(=S)N2CCCC2Cc2cccc(Cl)c2Cl)c1F (racemic) [Example 70] fall at or above the 3 mark?
Condition met

Does the reported logP for Cn1nc(C(F)F)c(C(=O)N2CCCC2c2cc(F)cc(F)c2)c1F (centres unmarked) [Example 10] fall at or above the 3 mark?
Condition not met

Does the reported logP for Cn1nc(C(F)F)c(C(=O)N2CCCC2Cc2cccc(Cl)c2)c1F (racemic) [Example 64] fall at or above the 3 mark?
Condition met

Does the reported logP for Cn1nc(C(F)F)c(C(=O)N2CCCC2c2cc(C(F)(F)F)cc(C(F)(F)F)c2)c1Cl (centres unmarked) [Example 40] fall at or above the 3 mark?
Condition met

Does the reported logP for Cn1nc(C(F)F)c(C(=O)N2CCCC2c2ccc(C(F)(F)F)cc2)c1Cl (centres unmarked) [Example 20] fall at or above the 3 mark?
Condition met

Does the reported logP for Cn1nc(C(F)F)c(C(=O)N2CCCC2Cc2ccc(F)cc2)c1F (centres unmarked) [Example 59] fall at or above the 3 mark?
Condition not met

Does the reported logP for Cn1nc(C(F)F)c(C(=O)N2CCC[C@H]2COc2ccc(Cl)cc2)c1Cl [Example 86] fall at or above the 3 mark?
Condition met

Does the reported logP for CC(c1ccc(Cl)cc1Cl)C1CCCN1C(=O)c1c(C(F)F)nn(C)c1Cl (mixture of isomers) [Example 72] fall at or above the 3 mark?
Condition met

Does the reported logP for Cn1nc(C(F)F)c(C(=O)N2CCCC2c2ccc(Cl)c(Cl)c2)c1F (centres unmarked) [Example 26] fall at or above the 3 mark?
Condition met

Does the reported logP for Cn1nc(C(F)F)c(C(=O)N2CCCC2Cc2ccccc2F)c1F (centres unmarked) [Example 57] fall at or above the 3 mark?
Condition not met

Does the reported logP for Cn1nc(C(F)F)c(C(=O)N2CCCC2c2nc3ccccc3s2)c1F (centres unmarked) [Example 51] fall at or above the 3 mark?
Condition not met

Does the reported logP for Cn1nc(C(F)F)c(C(=O)N2CCCC2Cc2cccc(F)c2)c1F (centres unmarked) [Example 58] fall at or above the 3 mark?
Condition not met

Does the reported logP for Cn1nc(C(F)F)c(C(=S)N2CCCC2Cc2c(Cl)cccc2Cl)c1F (racemic) [Example 77] fall at or above the 3 mark?
Condition met

Does the reported logP for Cn1nc(C(F)F)c(C(=O)N2CCCC2c2ccc3ncccc3c2)c1F (centres unmarked) [Example 47] fall at or above the 3 mark?
Condition not met

Does the reported logP for Cn1nc(C(F)F)c(C(=O)N2CCCC2Cc2c(Cl)cccc2Cl)c1F (racemic) [Example 76] fall at or above the 3 mark?
Condition met

Does the reported logP for CC(c1ccccc1Cl)C1CCCN1C(=O)c1c(C(F)F)nn(C)c1Cl (mixture of isomers) [Example 63] fall at or above the 3 mark?
Condition met

Does the reported logP for Cn1nc(C(F)F)c(C(=S)N2CCCC2c2ccc(Cl)cc2Cl)c1F (centres unmarked) [Example 24] fall at or above the 3 mark?
Condition met

Does the reported logP for Cn1nc(C(F)F)c(C(=O)N2CCCC2c2ccc(Cl)c(Cl)c2)c1Cl (centres unmarked) [Example 25] fall at or above the 3 mark?
Condition met

Does the reported logP for Cn1nc(C(F)F)c(C(=O)N2CCCC2c2ccc(Cl)cc2Cl)c1F (centres unmarked) [Example 22] fall at or above the 3 mark?
Condition met

Does the reported logP for Cn1nc(C(F)F)c(C(=O)N2CCCC2c2ccccc2Cl)c1F (centres unmarked) [Example 6] fall at or above the 3 mark?
Condition not met

###

system: Pyrenophora teres; experiment: In vivo preventive test on Pyrenophora teres (barley); details: 500 ppm of active ingredient, evaluated 7-9 days after inoculation
Exercise: state measured Efficacy for each of the compounds provided.
Please reply with the bare figure in % and do not write the unit itself.

Entry Cn1nc(C(F)F)c(C(=O)N2CCCC2c2cc3ccccc3s2)c1Cl (stereo not drawn) has what Efficacy?
95

Entry Cn1nc(C(F)F)c(C(=O)N2CCCC2c2ccc3c(c2)OCO3)c1F (stereo not drawn) has what Efficacy?
70

Entry Cc1cc(C)c(CC2CCCN2C(=O)c2c(C(F)F)nn(C)c2F)cc1C (racemic) has what Efficacy?
100

Entry Cn1nc(C(F)F)c(C(=O)N2CCCC2c2ccccc2Br)c1Cl (stereo not drawn) has what Efficacy?
95

Entry Cn1nc(C(F)F)c(C(=O)N2CCCC2c2ccc(Cl)cc2Cl)c1Cl (stereo not drawn) has what Efficacy?
100

Entry Cn1nc(C(F)F)c(C(=O)N2CCCC2c2ccccc2Cl)c1Cl (stereo not drawn) has what Efficacy?
80

Entry Cn1nc(C(F)F)c(C(=O)N2CCCC2Cc2c(Cl)cccc2Cl)c1F (racemic) has what Efficacy?
100

Entry Cn1nc(C(F)F)c(C(=O)N2CCCC2c2cc(C(F)(F)F)cc(C(F)(F)F)c2)c1F (stereo not drawn) has what Efficacy?
100

Entry Cn1nc(C(F)F)c(C(=O)N2CCCC2c2cccc(C(F)(F)F)c2)c1Cl (stereo not drawn) has what Efficacy?
100

Where do the numbers come from? From patent US8614242B2.
